Tested on: immortalized murine embryonic fibroblasts (Mef)
Experiment: Pooled negative selection RNAi screening (deep sequencing)
Format: cell-based
Conditions: deep sequencing reads, on dox compared to initial representation
Could you please mark Satisfied for values of Fold depletion in Mef below 1 Fold and Not satisfied for values at or above it?

1) Fgd4.821: shRNA, SEQ ID NO: 119 (nucleic acid) TGCTGTTGACAGTGAGCGAAAGGAGACTAATGAACAGAAATAGTGAAGCCACAGATGTATTTCTGTTCATTAGTCTCCTTCTGCCTACTGCCTCGGA    Not satisfied
2) L1cam.5255: shRNA, SEQ ID NO: 137 (nucleic acid) TGCTGTTGACAGTGAGCGCCAGAATTATAACAGGCAAATATAGTGAAGCCACAGATGTATATTTGCCTGTTATAATTCTGATGCCTACTGCCTCGGA    Not satisfied
3) Myc.2105: shRNA, SEQ ID NO: 148 (nucleic acid) TGCTGTTGACAGTGAGCGCCTGCCTCAAACTTAAATAGTATAGTGAAGCCACAGATGTATACTATTTAAGTTTGAGGCAGTTGCCTACTGCCTCGGA    Not satisfied
4) Cd6.520: shRNA, SEQ ID NO: 102 (nucleic acid) TGCTGTTGACAGTGAGCGAGAGCCACTTCTGGGAACACAATAGTGAAGCCACAGATGTATTGTGTTCCCAGAAGTGGCTCCTGCCTACTGCCTCGGA    Not satisfied
5) Map2k1.1200: neutral control shRNA, SEQ ID NO: 203 (nucleic acid) TGCTGTTGACAGTGAGCGAGCCTCTCAGCTCATATGGAATTAGTGAAGCCACAGATGTAATTCCATATGAGCTGAGAGGCCTGCCTACTGCCTCGGA    Not satisfied
6) EG408196.85: shRNA, SEQ ID NO: 116 (nucleic acid) TGCTGTTGACAGTGAGCGCAGCGAGAACCAGTGAGAAATATAGTGAAGCCACAGATGTATATTTCTCACTGGTTCTCGCTTTGCCTACTGCCTCGGA    Satisfied
7) Cerk.4466: shRNA, SEQ ID NO: 108 (nucleic acid) TGCTGTTGACAGTGAGCGCCTGGTATATTTGAGAAGACAATAGTGAAGCCACAGATGTATTGTCTTCTCAAATATACCAGATGCCTACTGCCTCGGA    Satisfied
8) Myb.2572: shRNA, SEQ ID NO: 143 (also SEQ ID NO: 52) (nucleic acid) TGCTGTTGACAGTGAGCGCTCCATGTATCTCAGTCACTAATAGTGAAGCCACAGATGTATTAGTGACTGAGATACATGGAATGCCTACTGCCTCGGA    Satisfied
